Assay: Drug recovery in sephadex G-10 chromatographic fraction of Sprague-Dawley rat urine at 25 mg/kg, ip by RP-HPLC analysis
Format: ADME, organism-based
Parameters: dose 25 mg/kg, route intraperitoneal
Details: read-out: Drug recovery
Recorded endpoint: dose excreted

In: Output dose excreted of CC(O)(c1cccc(Cl)c1)C(c1ccccc1)c1ccccn1 (stereo unspecified)
Out: < 0.1%

---

System: Rattus norvegicus
Experiment: Hypocholesteremic activity in Sprague-Dawley rat assessed as reduction in serum cholesterol level at 25 mg/kg for 7 days relative to control
Assay type: functional
Design: scale not given: the % may be the effect or the level left
Recorded endpoint: Activity
Record the result as a number with its unit.

Worked cases, answers included:
C=C(c1cccc(Cl)c1)C(c1ccc(O)cc1)c1ccccn1 (stereo not drawn) = 4%
C/C(=C(\c1ccc(O)cc1)c1ccccn1)c1cccc(Cl)c1 = 30.5%
C/C(=C(/c1ccccc1)c1ccccn1)c1cccc(Cl)c1 = 36.1%
CC(O)(c1cccc(Cl)c1)C(c1ccccc1)c1ccccn1 (stereo not drawn) = 49.5%

In: Output Activity of C=C(c1cccc(Cl)c1)C(c1ccccc1)c1ccccn1 (stereo not drawn)
Out: 10.1%

In: Output Activity of CC(O)(c1cccc(Cl)c1)C(c1ccc(O)cc1)c1ccccn1 (stereo not drawn)
Out: 43.5%

In: Output Activity of C/C(=C(\c1ccccc1)c1ccccn1)c1cccc(Cl)c1
Out: 62.8%

In: Output Activity of C/C(=C(/c1ccc(O)cc1)c1ccccn1)c1cccc(Cl)c1
Out: 38.1%
